# System: IL1-β release upon NLRP3 activation in peripheral blood mononuclear cells (PBMC)
# EXPERIMENT_DESCRIPTION: PBMC IC50 Determination Assay
# Format: cell-based
# ASSAY_CONTEXT: Homo sapiens; PBMC from buffy coats, LPS 3 h, compound 30 min, then ATP (5 mM) or nigericin (10 μM) for 1 h; IL-1β in media by ELISA; read-out: PBMCs, IC50
MEASURED_ENDPOINT: pIC50
The meaning of pIC50 here: minus log10 of the concentration in molar units.

Q: Look up and state reported pIC50 for COC(=O)[C@@H](Cc1cccc(N)c1)NC(=O)Nc1c2c(cc3c1CCC3)CCC2
A: 5.36

Q: Look up and state reported pIC50 for O=C(Nc1c2c(cc3c1CCC3)CCC2)N[C@H](Cc1cccnc1)C(=O)OCC1CC1
A: 6.33

Q: Look up and state reported pIC50 for COC(=O)C(Cc1ccccc1O)NC(=O)Nc1c2c(cc3c1CCC3)CCC2 (centres unmarked)
A: 7.22

Q: Look up and state reported pIC50 for COC(=O)[C@@H](CC(N)=O)NC(=O)Nc1c2c(cc3c1CCC3)CCC2
A: 4.49

Q: Look up and state reported pIC50 for O=C(Nc1c2c(cc3c1CCC3)CCC2)N[C@H](Cc1ccccc1)C(=O)O
A: 4.85

Q: Look up and state reported pIC50 for CC(C)OC(=O)CNC(=O)Nc1c2c(cc3c1CCC3)CCC2
A: 5.74

Q: Look up and state reported pIC50 for COC(=O)[C@@H](Cc1cccc(C#N)c1)NC(=O)Nc1c2c(cc3c1CCC3)CCC2
A: 5.77

Q: Look up and state reported pIC50 for CCOC(=O)C(Cc1ccnnc1)NC(=O)Nc1c2c(cc3c1CCC3)CCC2 (centres unmarked)
A: 5.22
